Tested on: Plasmodium berghei
ASSAY NOTES: Screen against P. berghei liver stage (PbLuc), transformed with Luciferase, at 10uM
Assay type: functional, HepG2
COND: tested at 10 uM
In all, about 69,000 compounds went through this assay and about 8,600 (12%) showed an effect of 50% or more. Shown is part of a subset that was picked to be rich in strong results.
ENDPOINT LABEL: INHIBITION
Give your result as the value with the unit written after it.

CN(C)C(=O)CN1C[C@H]2CC[C@@H](C1)N(Cc1ccccc1OCCO)C2 | 59.7%
CN(C)C(=O)CN1C[C@H]2CC[C@@H](C1)N(Cc1ccc(Cl)cc1Cl)C2 | 19.1%
Cc1cnn(CCNCc2ccc(OCc3csc(C)n3)cc2)c1 | -37.9%
COc1ccc(OCCCNCCn2cccn2)cc1 | 64.7%
CN(C)C(=O)N1C[C@H]2CC[C@@H](C1)N(C/C=C/c1ccc(F)cc1)C2 | -27.7%

INHIBITION for Cc1ccc(N2CCC3(CCN(C(=O)c4ccnnc4)CC3)CC2)nn1 is -6.21%

INHIBITION for CN(C)S(=O)(=O)N1C[C@H]2CC[C@@H](C1)N(C/C=C/c1ccc(F)cc1)C2 is 30.7%

INHIBITION for Cc1cnn(CC(C)NCc2ccc(OCc3noc(C)n3)cc2)c1 (stereo unspecified) is -79.3%

INHIBITION for Cc1cnn(CCNCc2ccc(OCc3ccccn3)cc2)c1 is 34.6%

INHIBITION for Cc1ccc(OCc2nc(CNCCn3cccn3)cs2)cc1 is -24.1%

INHIBITION for COc1ccc(OCCNCCn2cccn2)cc1 is 0.932%

* * *

Tested on: Plasmodium berghei
ASSAY NOTES: Screen against P. berghei liver stage (PbLuc), transformed with Luciferase, at 10uM
Format: functional, HepG2
COND: tested at 10 uM
In all, about 69,000 compounds went through this assay and about 8,600 (12%) showed an effect of 50% or more. The list comes from a sample in which strong results are over-represented; it also holds close analogues and randomly drawn compounds.
Quick list: INHIBITION per entry.
Please give a number only; it is taken to be in %.

Look over these answered cases.
CN(C)C[C@]12COC[C@H]1CN(Cc1ccccn1)C2 | 87.7
COc1c(C(=O)NCC(C)Sc2ccccc2)c(C)nn1C (stereo unspecified) | 29.1
COc1ccc(NC(=O)c2ccco2)c(N2CCN(C(C)=O)CC2)n1 | 44
CCCC(C)C(=O)Nc1ccc(OC)nc1N1CCN(C(C)=O)CC1 (stereo unspecified) | 29.4
Cc1cc(CN2C[C@@H]3COC[C@]3(CN(C)C)C2)no1 | 18.8
COc1ccc(NC(C)=O)c(N2CCN(C(C)=O)CC2)n1 | 80.1
CCC(CNC(=O)c1c(C)nn(C)c1OC)Oc1ccccc1 (stereo unspecified) | 73.5
COc1ccc(NC(=O)CCC(C)C)c(N2CCN(C(C)=O)CC2)n1 | 68.8

INHIBITION for CCn1c(C)cc(C(=O)N2CCCC(C(=O)c3nccn3C)C2)c1C (stereo unspecified) is -1.09

INHIBITION for CCc1c(C)sc2nc3n(CCN4CCOCC4)nc(SC)n3c(=O)c12 is 17.7

INHIBITION for COc1ccc(OCCN(C)S(=O)(=O)c2cnn(C)c2)cc1 is 11.5

Just for reference, ChEMBL document CHEMBL4513216 is where these values come from.
